target: T1, human CD47-Fc (human, UniProt Q08722 19-134); assay: ELISA, CD47-Fc coated, VHH in E. coli supernatant, anti-myc detection, 450 nm
T1 construct: Leu19-Val134 is the natural numbering printed; also called human CD47-Fc receptor; human CD47-Fc (Biocad); not shown: Fc tag of the expression plasmid
T1 sequence (Q08722 19-134): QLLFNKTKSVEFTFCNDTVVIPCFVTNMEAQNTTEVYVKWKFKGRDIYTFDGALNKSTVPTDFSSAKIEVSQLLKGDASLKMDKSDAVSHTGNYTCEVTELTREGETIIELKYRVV
Items are presented alongside their recorded OD units, initial screening for CD47-Fc.
Give just the number in OD units; leave the unit off.

{"binder": "BCD106-02_L.Alecto.VHHSel2_MP1_G5_37 (VHH, Llama anti-CD47 VHH tested as E. coli culture supernatant; not shown: myc and His6 tags at the C-terminus of the VHH (pET-22)) VHH: AVQLVDSGGGLVQPGGSLRLSCAASRSIFSINAMNWYRQAPGNRREWVAQITDEGITNYVDSVKGRFTITRDNAKNTMYLQMNSLKPEDTAVYYCNAFVITTTSEIYWGQGTTVTVSS", "metric": "OD units, initial screening for CD47-Fc", "measured_result": 0.166}
{"binder": "BCD106-02_L.Alecto.VHHSel2_MP1_G7_53 (VHH, Llama anti-CD47 VHH tested as E. coli culture supernatant; not shown: myc and His6 tags at the C-terminus of the VHH (pET-22)) VHH: QVKLEESGGGLVQPGGSLTLSCAASGIISSINAMNWYRQAPGKRREWVAQITGEGITNCRDSWKGRFSITSDSANNTMYLQMNNLKPDDTDVYYCNAFVIHTTSEIYWGLGTTVTVSS", "metric": "OD units, initial screening for CD47-Fc", "measured_result": 0.319}

Please fill in: OD units, initial screening for CD47-Fc reported for BCD106-02_L.Alecto.VHHSel2_MP1_C7_49 (VHH, Llama anti-CD47 VHH tested as E. coli culture supernatant; not shown: myc and His6 tags at the C-terminus of the VHH (pET-22)) VHH: AVQLVDSGGGLVQPGGSLRLSCAASRSIFSINAMNWYRQPPGNRREWVAQITDEGITNYVDSVKGRFTITRDNAKNTMYLQMNSLKPEDTAVYYCNAFVITTTSEIYWGQGTTVTVSS = 0.127

Please fill in: OD units, initial screening for CD47-Fc reported for BCD106-02_L.Alecto.VHHSel2_MP1_H10_78 (VHH, Llama anti-CD47 VHH tested as E. coli culture supernatant; not shown: myc and His6 tags at the C-terminus of the VHH (pET-22)) VHH: QVKLEESGGGLVQPGGSLRLSCAASRSISSINAMNWYRQAPGKRREWVAQITGEGITNYRDSVKGRFTITSDNAKNTMYLQMNSLKPEDTAVYYCNAFVIHTTSEVYWGQGTLVTVSS = 0.4
